# System: MDA-MB-468 breast
# testMethodNotes: NCI tumour cell line growth inhibition, 48 h; in the data active = GI50 below about 0.43 µM; inactive = the rest
Write down one outcome, taken from 1.0 = active, 0.0 = inactive

Example cases with answers are listed next.
>>> group("O=C1C2=C(C(=O)c3c(O)ccc(O)c31)N(c1cccnc1)Cc1ccccc1O2")
1.0
>>> group("COc1ccc(Nc2[nH]n(C3=Nc4ccccc4Sc4ccccc43)c(=O)c2C#N)cc1")
1.0
>>> group("COc1ccc2nc(-c3ccc(Cl)cc3)cc(-c3nnc(SCC(=O)Nc4ccc(/C(C)=N\\O)cc4)o3)c2c1")
0.0
>>> group("Cc1c(C)n(CC(O)CNC2CCCCC2C)c2ccccc12 (stereo unspecified)")
0.0

query: What is the recorded call for this compound in the test? CC1=C(C(=O)Nc2ccccc2)C(c2ccc3ccccc3c2)n2c(nc3ccccc32)N1 (stereo unspecified)
result: 0.0

query: What is the recorded call for this compound in the test? O=c1[nH]ccc2nc(N3CCC(O)CC3)nc(Nc3ccc(N4CCOCC4)cc3)c12
result: 0.0

* * *

Here, each record is paired with measured TGI data.
# Test system: NCI-H23 lung
# testMethodNotes: NCI tumour cell line growth inhibition, 48 h
Lab book: enter the figure in µM, no units written.

Some solved cases for reference:
>>> datavalue("O=C(c1ccc(O)cc1)C1[C@H](c2ccc(Br)cc2)[C@@H](c2ccccc2)NC12C(=O)Nc1ccc(Br)cc12 (some centres undefined)")
9.81
>>> datavalue("Clc1ccc2c(N/N=C/c3c[nH]c4ccc(Br)cc34)ccnc2c1")
2.37

Shifting focus to the compound that follows.
query: What value of TGI has been reported for the following compound? COc1ccc2[nH]cc(-c3nc(N)nnc3-c3cn(C)c4ncc(Br)cc34)c2c1
result: 21.7

* * *

Here, each record is paired with measured GI50 data.
# System: MDA-MB-468 breast
# testMethodNotes: NCI tumour cell line growth inhibition, 48 h

Some solved cases for reference:
>>> datavalue("COc1ccc2[nH]cc(-c3nc(N)nnc3-c3cn(C)c4ncc(Br)cc34)c2c1")
"30.1 nM"
>>> datavalue("COc1ccccc1CN=C1NC(=O)/C(=C/c2ccc3ncccc3c2)S1")
"3350 nM"
>>> datavalue("COc1ccc(C2CC(c3ccc4ccccc4c3)=NN2/C=C2\\SC(=S)N(NC(=O)Cc3ccccc3Nc3c(Cl)cccc3Cl)C2=O)cc1 (stereo not given)")
"544 nM"
>>> datavalue("CS(=O)(=O)c1nccc(-c2c(-c3cccc(OCc4ccccc4)c3)nc3sccn23)n1")
"1410 nM"

Shifting focus to the compound that follows.
query: What value of GI50 has been reported for the following compound? CN(C)c1ccc(/C=N/NC(=O)CSc2nc3sc4c(c3c(=O)n2-c2ccccc2)CCCCC4)cc1
result: 3850 nM
